Target: Fibroblast growth factor 10 (Homo sapiens) (UniProt O15520)
Sequence (O15520 whole entry, looked up): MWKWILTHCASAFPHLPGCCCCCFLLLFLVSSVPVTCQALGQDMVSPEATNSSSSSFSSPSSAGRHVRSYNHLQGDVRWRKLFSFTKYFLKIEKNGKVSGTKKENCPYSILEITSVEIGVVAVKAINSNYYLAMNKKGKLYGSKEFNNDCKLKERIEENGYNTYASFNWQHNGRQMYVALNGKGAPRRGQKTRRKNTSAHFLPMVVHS
Experiment: FGF10 binders on small-molecule microarrays, primary screen, biochemical, small-molecule microarray, 635 nm fluorescence (AID 1102)
Details: FGF10 binding, fluorescence 635 nm, higher = more signal
measure: composite z-score
Write no unit; give the number alone.

Send back Fibroblast growth factor 10 (Homo sapiens) (UniProt O15520) composite z-score of "Cc1cc2c(nc1C)CCCN2CC(O)CN1CCCc2nc(C)c(C)cc21" only.
0.92

Send back Fibroblast growth factor 10 (Homo sapiens) (UniProt O15520) composite z-score of "COC(=O)CC=C[C@@H](C)[C@@H](C=NOC[C@H]1O[C@H](c2ccccc2)C=C[C@@H]1Oc1ccc(OC)cc1)NS(=O)(=O)c1ccc(C)cc1" only.
-0.858

Send back Fibroblast growth factor 10 (Homo sapiens) (UniProt O15520) composite z-score of "COc1ccc(O[C@H]2C=C[C@@H](c3ccccc3)O[C@@H]2CON=C(C)CCC(=O)OC[C@H]2O[C@H](c3ccccc3)C=C[C@@H]2Oc2ccc(OC)cc2)cc1" only.
-1.19

Send back Fibroblast growth factor 10 (Homo sapiens) (UniProt O15520) composite z-score of "C=CC1=C[C@H](O)[C@@H]2O[C@@H]2C12OCCCO2" only.
0.351

Send back Fibroblast growth factor 10 (Homo sapiens) (UniProt O15520) composite z-score of CCOC(=O)[C@H](CC(C)C)NC(=O)CCC1CC(OC(=O)NCCc2ccc(F)cc2)CC2(CCCC(COC(=O)NCC(c3ccccc3)c3ccccc3)O2)O1 (some centres not stated) only.
0.588

Send back Fibroblast growth factor 10 (Homo sapiens) (UniProt O15520) composite z-score of "CO[C@H](C1CCCCC1)[C@H](C)C=CCC(=O)OCCCc1ccccc1" only.
0.227

Send back Fibroblast growth factor 10 (Homo sapiens) (UniProt O15520) composite z-score of CCOC(=O)[C@H](Cc1ccccc1)NC(=O)CCC1CC(OC(=O)NCCc2ccc(F)cc2)CC2(CCCC(COC(=O)NCCCN3CCCC3=O)O2)O1 (some centres not stated) only.
0.767
